- Organism: Homo sapiens
- ASSAY METHOD TEXT: To identify inhibition of the IFN signalling (Jak-Stat) pathway via expression of an eGFP reporter gene under the control of an IFN-stimulated response element (ISRE) containing MxA promoter.
- Format: functional
- Design: scale not given: direction of the effect not stated beside the values
- EXPERIMENTAL PARAMETERS: 30 µM
Percent Effect: recorded values
Response body: numeric value in %, unit text excluded.

Below: 3 molecules and their reported Percent Effect.
| MOLECULE | Percent Effect (%) |
| --- | --- |
| Cc1nn(C)c2cn(C(C)C(=O)NCc3cccnc3)nc12 (stereo not given) | 20.4 |
| CS(=O)(=O)CCNC(=O)C1(c2cccc(Cl)c2)CCCCC1 | 13.7 |
| COc1ccccc1NC(=O)CSC1CCc2ccccc2NC1=O (stereo not given) | 13 |

Give Percent Effect for NC(=O)c1cc(C2CCCN(CCOCC(F)(F)F)C2)n[nH]1 (stereo not given)
-4.53

Note Percent Effect for the molecule shown: `N#Cc1c(F)cccc1N1CCN(S(=O)(=O)c2cccs2)CC1`
55.5

Using known records, supply Percent Effect for Cc1cnc(C(=O)N2CCCCC2c2[nH]ncc2S(C)(=O)=O)cn1 (stereo not given)
-6.39
